Listed below: normalized RNA/DNA level without ligand (log10) values for each entry.
B1: library; a variant is named by its letters at N, in order (parent)
chain: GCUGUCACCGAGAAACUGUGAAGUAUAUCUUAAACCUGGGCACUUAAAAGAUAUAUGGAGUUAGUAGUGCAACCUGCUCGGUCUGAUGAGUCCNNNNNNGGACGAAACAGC

- Variants of: B1
- ASSAY NAME: normalized RNA/DNA level without ligand (relative to sTRSVctl = 100) (log10 (% of sTRSVctl)); HEK293T; ligand: cyclic di-GMP (c-di-GMP-II aptamer); higher = less ribozyme self-cleavage, higher mRNA level
- RUN PARAMETERS: reporter: mCherry (pCS4076), ligand present: no
PROPERTY: normalized RNA/DNA level without ligand (log10)

{"columns": ["VARIANT SPEC", "ENDPOINT VALUE"],
 "data": [
  ["UGUUUC", 1.81],
  ["AUUCGC", 1.78],
  ["CUGCAC", 1.74],
  ["GGCUAG", 1.52],
  ["UCACAU", 1.58],
  ["GGGCAA", 1.72],
  ["CGAUGU", 1.75],
  ["CCAAGG", 1.69],
  ["UAUUCG", 1.76],
  ["UGAACU", 1.72],
  ["UCUGUA", 1.57],
  ["CCUGGC", 1.68],
  ["AUUGGU", 1.58],
  ["AGGUCG", 1.74],
  ["GAUAUA", 1.53]
]}
